- assay: Differential index, LC50 for rat NRK 52E cells to LC50 for rat K-ras transformed NRK K/1 cells
- Format: ADME, cell-based
- condition_context: NRK 52E cells versus K-ras transformed NRK K/1 cells
Label key: Met means selectivity ratio under 2; Not met means selectivity ratio of 2 or more.

Task item: Lab note: confirm whether the reported selectivity ratio for this molecule is below 2, equality not counting. molecule: CCCCCCCCOC(=O)c1cc2c([nH]c3ccccc32)c(-c2ccc3c(n2)C(=O)C(NC(=O)CCl)=CC3=O)n1
Reply: Not met

Task item: Lab note: confirm whether the reported selectivity ratio for this molecule is below 2, equality not counting. molecule: CC(=O)NC1=CC(=O)c2ccc(-c3nc(C(=O)OC4CCCCC4)cc4c3[nH]c3ccccc34)nc2C1=O
Reply: Met

Task item: Lab note: confirm whether the reported selectivity ratio for this molecule is below 2, equality not counting. molecule: CCOC(=O)c1cc2c([nH]c3ccccc32)c(-c2ccc3c(n2)C(=O)C(NC(C)=O)=CC3=O)n1
Reply: Not met

Task item: Lab note: confirm whether the reported selectivity ratio for this molecule is below 2, equality not counting. molecule: CCCC(=O)NC1=CC(=O)c2ccc(-c3nc(C(=O)OC)c(C)c4c3[nH]c3ccccc34)nc2C1=O
Reply: Met

Task item: Lab note: confirm whether the reported selectivity ratio for this molecule is below 2, equality not counting. molecule: NC1=CC(=O)c2ccc(-c3[nH]ccc4c5ccccc5nc3-4)nc2C1=O
Reply: Not met

Task item: Lab note: confirm whether the reported selectivity ratio for this molecule is below 2, equality not counting. molecule: CC(=O)NC1=CC(=O)c2ccc(-c3[nH]c(CO)cc4c5ccccc5nc3-4)nc2C1=O
Reply: Met

Task item: Lab note: confirm whether the reported selectivity ratio for this molecule is below 2, equality not counting. molecule: CC(=O)NC1=CC(=O)c2ccc(-c3[nH]c(C(=O)O)cc4c5ccccc5nc3-4)nc2C1=O
Reply: Not met

Task item: Lab note: confirm whether the reported selectivity ratio for this molecule is below 2, equality not counting. molecule: CC(=O)NC1=CC(=O)c2ccc(-c3nc(C(=O)OCCN(C)C)c(C)c4c3[nH]c3ccccc34)nc2C1=O
Reply: Met

Task item: Lab note: confirm whether the reported selectivity ratio for this molecule is below 2, equality not counting. molecule: CCCCOC(=O)c1cc2c([nH]c3ccc(OC)cc32)c(-c2ccc3c(n2)C(=O)C(NC(C)=O)=CC3=O)n1
Reply: Met

Task item: Lab note: confirm whether the reported selectivity ratio for this molecule is below 2, equality not counting. molecule: COC(=O)c1nc(-c2ccc3c(n2)C(=O)C(NC(=O)CCl)=CC3=O)c2[nH]c3ccccc3c2c1C
Reply: Met

Task item: Lab note: confirm whether the reported selectivity ratio for this molecule is below 2, equality not counting. molecule: COC(=O)c1[nH]c(-c2ccc3c(n2)C(=O)C(NC(C)=O)=CC3=O)c2nc3ccccc3c-2c1C
Reply: Not met

Task item: Lab note: confirm whether the reported selectivity ratio for this molecule is below 2, equality not counting. molecule: CCCCOC(=O)c1cc2c([nH]c3ccc(F)cc32)c(-c2ccc3c(n2)C(=O)C(NC(C)=O)=CC3=O)n1
Reply: Met

Task item: Lab note: confirm whether the reported selectivity ratio for this molecule is below 2, equality not counting. molecule: CC(=O)NC1=CC(=O)c2ccc(-c3nc(C(=O)OCCC(C)C)c(C)c4c3[nH]c3ccccc34)nc2C1=O
Reply: Met

Task item: Lab note: confirm whether the reported selectivity ratio for this molecule is below 2, equality not counting. molecule: CC(=O)NC1=CC(=O)c2ccc(-c3nc(C(=O)OCCC(C)C)cc4c3[nH]c3ccccc34)nc2C1=O
Reply: Not met

Task item: Lab note: confirm whether the reported selectivity ratio for this molecule is below 2, equality not counting. molecule: CC(=O)NC1=CC(=O)c2ccc(-c3[nH]ccc4c5ccccc5nc3-4)nc2C1=O
Reply: Met

Task item: Lab note: confirm whether the reported selectivity ratio for this molecule is below 2, equality not counting. molecule: COC(=O)c1cc2c([nH]c3ccccc32)c(-c2ccc3c(n2)C(=O)C(NC(C)=O)=CC3=O)n1
Reply: Not met

Task item: Lab note: confirm whether the reported selectivity ratio for this molecule is below 2, equality not counting. molecule: CCCCOC(=O)c1cc2c([nH]c3ccccc32)c(-c2ccc3c(n2)C(=O)C(NC(=O)C(C)C)=CC3=O)n1
Reply: Not met

Task item: Lab note: confirm whether the reported selectivity ratio for this molecule is below 2, equality not counting. molecule: CC(=O)NC1=CC(=O)c2ccc(-c3nc(C(=O)OCc4ccccc4)cc4c3[nH]c3ccccc34)nc2C1=O
Reply: Met

Task item: Lab note: confirm whether the reported selectivity ratio for this molecule is below 2, equality not counting. molecule: CCCCOC(=O)c1cc2c([nH]c3ccccc32)c(-c2ccc3c(n2)C(=O)C(NC(=O)CCC)=CC3=O)n1
Reply: Met

These entries and their values trace back to ChEMBL document CHEMBL1144487.
